target: mCS1-His (Mus musculus, strain , UniProt Q8BHK6)
Sequence (Q8BHK6 23-333): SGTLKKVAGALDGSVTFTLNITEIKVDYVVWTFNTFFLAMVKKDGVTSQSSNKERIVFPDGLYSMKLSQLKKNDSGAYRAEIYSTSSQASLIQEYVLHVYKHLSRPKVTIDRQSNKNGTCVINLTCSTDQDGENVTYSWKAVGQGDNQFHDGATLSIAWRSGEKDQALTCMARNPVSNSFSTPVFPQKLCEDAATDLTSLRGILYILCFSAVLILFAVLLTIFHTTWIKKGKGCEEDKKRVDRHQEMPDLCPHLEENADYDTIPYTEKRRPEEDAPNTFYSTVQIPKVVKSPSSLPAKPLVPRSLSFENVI

binder | binding result
sdAb9 (VHH) VHH: QVQLQESGGGLVQPGGSLRLSCAASGSIFSILSMGWYRQAPGKQRELVASITNGGSTNYADSVKGRFTIFRDNAKNTVDLQMNSLKPEDTAVYYCNARPPRADLWGQGTQVTVSS | binds
sdAb10 (VHH) VHH: QVQLQESGGGLVQPGGSLRLSCAASGSIFSIYAMGWYRQAPGKQRELVAGITSGGSTHYADSVKGRFTISRDNAKNSVYLQMNSLKPEDTAVYYCNSDLDPPSGTYYPALWSWGQGTQVTVSS | binds
